Molecular target: T1, human IL-36R on cells (human, UniProt Q9HB29 20-575)
T1 sequence (looked up): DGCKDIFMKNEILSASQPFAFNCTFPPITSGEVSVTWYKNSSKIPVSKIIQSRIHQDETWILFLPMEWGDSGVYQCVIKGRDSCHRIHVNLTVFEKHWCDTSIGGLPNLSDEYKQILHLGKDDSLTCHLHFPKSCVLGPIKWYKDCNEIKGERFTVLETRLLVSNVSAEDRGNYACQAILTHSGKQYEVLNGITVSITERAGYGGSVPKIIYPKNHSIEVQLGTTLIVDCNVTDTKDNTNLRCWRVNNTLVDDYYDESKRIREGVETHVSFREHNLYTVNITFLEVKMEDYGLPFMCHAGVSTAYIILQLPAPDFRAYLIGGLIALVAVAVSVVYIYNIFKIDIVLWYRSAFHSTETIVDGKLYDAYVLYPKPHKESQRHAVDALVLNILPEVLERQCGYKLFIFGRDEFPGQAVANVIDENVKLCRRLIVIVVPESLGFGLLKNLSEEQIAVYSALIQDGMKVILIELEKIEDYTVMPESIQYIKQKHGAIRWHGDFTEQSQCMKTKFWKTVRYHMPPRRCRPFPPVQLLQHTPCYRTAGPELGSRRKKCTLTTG
Test: cell-based or functional assay
experimental endpoint: IC90, IL-8 release, human primary keratinocytes (NHK), trun-IL-36b (nM)
# value in nM; strip the unit string

Can you look up the measured IC90, IL-8 release, human primary keratinocytes (NHK), trun-IL-36b of antibody 81B4 (antibody, V domains shown, Mouse monoclonal from hybridoma; also called 81B4E11; Mouse 81B4) VH: QVQLQQPGADFVRPGASMRLSCKASGYSFTSSWIHWVKQRPGQGLEWIGEINPGNVRTNYNENFRNKATLTVDKSSTTAYMQLRSLTSADSAVYYCTVVFYGEPYFPYWGQGTLVTVSA VL: QIVLTQSPAIMSASLGERVTMTCTASSSVSSSYFHWYQQKPGSSPKLWIYRTSNLASGVPGRFSGSGSGTSYSLTISSMEAEDAATYYCHQFHRSPLTFGAGTKLELK for me?
1.2

Then what about the binder antibody 78C8 (antibody, V domains shown, Mouse monoclonal from hybridoma; also called 78C8D1; Mouse 78C8) VH: QVQLKESGPVLVAPSQSLSITCTVSGFSLTKFGVHWIRQTPGKGLEWLGVIWAGGPTNYNSALMSRLTISKDISQSQVFLRIDSLQTDDTAMYYCAKQIYYSTLVDYWGQGTSVTVSS VL: DVLLTQTPLSLPVSLGDQASISCRSSQNIVHSNGNTYLQWYLQKPGQSPKLLIYKVSNRFSGVPDRFSGSGSGTDFTLKISRVEAEDLGVYYCFQGSHVPFTFGAGTKLELK ?
34

Then what about the binder antibody 73F6 (antibody, V domains shown, Mouse monoclonal from hybridoma; also called 73F6F8; Mouse 73F6) VH: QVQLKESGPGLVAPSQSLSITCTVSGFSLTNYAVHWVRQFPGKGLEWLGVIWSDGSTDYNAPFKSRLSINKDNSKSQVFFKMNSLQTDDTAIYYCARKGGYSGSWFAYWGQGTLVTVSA VL: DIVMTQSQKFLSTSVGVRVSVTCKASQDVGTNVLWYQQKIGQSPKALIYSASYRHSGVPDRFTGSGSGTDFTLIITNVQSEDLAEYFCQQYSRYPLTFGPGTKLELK ?
26

Then what about the binder antibody 73C5 (antibody, V domains shown, Mouse monoclonal from hybridoma; also called 73C5C10; Mouse 73C5) VH: QVQLKESGPGLVAPSQSLSITCTVSGFSLTNYAVHWVRQFPGKGLEWLGVIWSDGSTDFNAPFKSRLSINKDNSKSQVFFKMNSLQIDDTAIYYCARKGGYSGSWFAYWGQGTLVTVSA VL: DIVMTQSQKFLSTSVGVRVSVTCKASQDVGTNVLWYQQKIGQSPKPLIYSASYRHSGVPDRFTGSGSGTDFTLIISNVQSEDLAEYFCQQYSRYPLTFGPGTKLELK ?
46

Every entry's value here was drawn from patent US20200231684A1.
